- target: 3',5'-cyclic-AMP phosphodiesterase 4C (Homo sapiens, UniProt Q08493)
- Sequence (Q08493 whole entry): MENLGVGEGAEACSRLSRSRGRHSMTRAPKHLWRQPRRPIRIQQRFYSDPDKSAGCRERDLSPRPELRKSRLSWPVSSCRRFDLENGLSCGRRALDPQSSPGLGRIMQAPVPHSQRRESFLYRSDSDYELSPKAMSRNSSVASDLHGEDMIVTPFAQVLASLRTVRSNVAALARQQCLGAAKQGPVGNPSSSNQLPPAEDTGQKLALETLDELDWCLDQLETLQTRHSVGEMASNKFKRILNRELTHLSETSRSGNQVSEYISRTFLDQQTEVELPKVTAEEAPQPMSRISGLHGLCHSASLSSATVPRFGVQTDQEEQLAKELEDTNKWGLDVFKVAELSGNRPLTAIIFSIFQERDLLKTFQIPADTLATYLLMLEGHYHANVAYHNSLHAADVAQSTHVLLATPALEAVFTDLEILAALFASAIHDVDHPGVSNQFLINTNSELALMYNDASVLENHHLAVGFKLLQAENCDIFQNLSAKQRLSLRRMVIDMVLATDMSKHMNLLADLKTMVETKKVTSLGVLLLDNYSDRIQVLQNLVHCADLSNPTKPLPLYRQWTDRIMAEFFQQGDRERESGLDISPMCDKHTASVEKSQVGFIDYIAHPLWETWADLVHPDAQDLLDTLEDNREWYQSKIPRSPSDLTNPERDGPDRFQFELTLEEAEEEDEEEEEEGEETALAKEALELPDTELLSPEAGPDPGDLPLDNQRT
Each record's class is read off its IC50 using these ranges: lo (below 0.7 nM), med (0.7 nM to below 10 nM), hi (10 nM or more)

>>> df
                                   molecule  classification
0  Cc1ccc(/C(=C/c2cccc(-c3cc(C(C)C)cc4cccnc34)c2)c2ccc(S(C)(=O)=O)cc2)nc1              lo
1  O=S(=O)(Nc1cccc(-c2cc(Cc3ccncc3)cc3cccnc23)c1)c1ccccc1              hi
2  CC(C)c1cc(-c2cccc(C(Cc3ccncc3)c3ccc(Cl)cc3)c2)c2ncccc2c1 (centres undefined)              hi
3  CC(C)c1cc(-c2cccc(C(Cc3cc[n+]([O-])cc3)c3ccc(Cl)cc3)c2)c2ncccc2c1 (centres undefined)              hi
4  [O-][n+]1cccc(C[C@@H](c2ccc(OC(F)F)c(OC3CC3)c2)c2cnc(C(O)(C(F)(F)F)C(F)(F)F)s2)c1             med
5  CC(C)NC(=O)/C(=C/c1cccc(-c2cc(C(C)(C)C#N)cc3cccnc23)c1)c1ccc(S(C)(=O)=O)cc1             med
6  CC(c1cc(-c2cccc(/C=C(\c3ccc(S(C)(=O)=O)cc3)c3ncc(C(C)(C)O)s3)c2)c2ncccc2c1)S(C)(=O)=O (centres undefined)              hi

Now consider a different molecule.
Inquiry: # bin label for CC(C)c1cc(-c2cccc(/C=C(/c3ccc(C(C)(C)O)cc3)c3ccc(S(C)(=O)=O)cc3)c2)c2ncccc2c1
Reply text: lo

* * *

- assay.summary: Emetic threshold as plasma concentration in squirrel monkeys after 0.5 mg/kg oral dose
- Type: ADME, organism-based
- Design: dose 0.5 mg/kg, route oral
- conditions: saimiri, read-out: Emesis_Cmax
property.label: Cmax (nM)
Give bare numbers, in nM.

Inquiry: Returns the measured Cmax for the input molecule. Input: [O-][n+]1cccc(C[C@@H](c2ccc(OC(F)F)c(OC3CC3)c2)c2cnc(C(O)(C(F)(F)F)C(F)(F)F)s2)c1
Reply text: 1600

* * *

Parameter 'readout' = IC50; parameter 'system' = UniProt:P27815.
One number for each entry, in nM.

Answered cases to consult:
In [3]: df
Out[3]:
                                   molecule          target  quantity_unit  test_result
0  [O-][n+]1cccc(C[C@@H](c2ccc(OC(F)F)c(OC3CC3)c2)c2cnc(C(O)(C(F)(F)F)C(F)(F)F)s2)c1  UniProt:P27815             nM          0.4
1  CC(C)NC(=O)/C(=C/c1cccc(-c2cc(C(C)(C)C#N)cc3cccnc23)c1)c1ccc(S(C)(=O)=O)cc1  UniProt:P27815             nM          0.8
2  CC(C)NC(=O)/C(=C\c1cccc(-c2cc(C(C)(C)C#N)cc3cccnc23)c1)c1ccc(S(C)(=O)=O)cc1  UniProt:P27815             nM            1

Then there is this molecule:
Inquiry: Returns the measured IC50 for the input molecule. Input: CC(C)c1cc(-c2cccc(CC(c3ccncc3)C(C)(C)O)c2)c2ncccc2c1 (centres undefined)
Reply text: 3.4

* * *

Would you kindly list IC50 for each of these compounds?
- target: Phosphodiesterase 4 (Homo sapiens, UniProt P27815+Q08499+Q07343+Q08493)
- assay.summary: Inhibition of LPS-induced TNFalpha production in squirrel monkey whole blood
- Format: functional, tissue-based, Saimiri sciureus
- conditions: target entry is the homologue from another species
Give bare numbers, in µM.

# annotated cases, reported IC50 shown
                                   compound  test_result
0  COc1ccc([C@H](Cc2ccncc2)c2ccccc2)cc1OC1CCCC1          0.6
1  CC(C)c1cc(-c2cccc(CC(c3ccncc3)C(C)(C)O)c2)c2ncccc2c1 (centres undefined)         0.45
2  [O-][n+]1cccc(C[C@@H](c2ccc(OC(F)F)c(OC3CC3)c2)c2cnc(C(O)(C(F)(F)F)C(F)(F)F)s2)c1        0.005

Alright, here's another compound for you.
Inquiry: // IC50 lookup, key: CC(C)NC(=O)/C(=C/c1cccc(-c2cc(C(C)(C)C#N)cc3cccnc23)c1)c1ccc(S(C)(=O)=O)cc1
Reply text: 0.015

* * *

- assay.summary: Emetic threshold as plasma concentration in squirrel monkeys after 3 mg/kg oral dose
- Assay type: ADME, organism-based
- Design: dose 3 mg/kg, route oral
- conditions: saimiri, read-out: Emesis_Cmax
property.label: Cmax

Inquiry: Reported Cmax, molecule CC(C)NC(=O)/C(=C/c1cccc(-c2cc(C(C)(C)S(C)(=O)=O)cc3cccnc23)c1)c1ccc(S(C)(=O)=O)cc1 : ____
Reply text: > 2500 nM

* * *

- target: 3',5'-cyclic-AMP phosphodiesterase 4A (Homo sapiens)
- Sequence (P27815 whole entry): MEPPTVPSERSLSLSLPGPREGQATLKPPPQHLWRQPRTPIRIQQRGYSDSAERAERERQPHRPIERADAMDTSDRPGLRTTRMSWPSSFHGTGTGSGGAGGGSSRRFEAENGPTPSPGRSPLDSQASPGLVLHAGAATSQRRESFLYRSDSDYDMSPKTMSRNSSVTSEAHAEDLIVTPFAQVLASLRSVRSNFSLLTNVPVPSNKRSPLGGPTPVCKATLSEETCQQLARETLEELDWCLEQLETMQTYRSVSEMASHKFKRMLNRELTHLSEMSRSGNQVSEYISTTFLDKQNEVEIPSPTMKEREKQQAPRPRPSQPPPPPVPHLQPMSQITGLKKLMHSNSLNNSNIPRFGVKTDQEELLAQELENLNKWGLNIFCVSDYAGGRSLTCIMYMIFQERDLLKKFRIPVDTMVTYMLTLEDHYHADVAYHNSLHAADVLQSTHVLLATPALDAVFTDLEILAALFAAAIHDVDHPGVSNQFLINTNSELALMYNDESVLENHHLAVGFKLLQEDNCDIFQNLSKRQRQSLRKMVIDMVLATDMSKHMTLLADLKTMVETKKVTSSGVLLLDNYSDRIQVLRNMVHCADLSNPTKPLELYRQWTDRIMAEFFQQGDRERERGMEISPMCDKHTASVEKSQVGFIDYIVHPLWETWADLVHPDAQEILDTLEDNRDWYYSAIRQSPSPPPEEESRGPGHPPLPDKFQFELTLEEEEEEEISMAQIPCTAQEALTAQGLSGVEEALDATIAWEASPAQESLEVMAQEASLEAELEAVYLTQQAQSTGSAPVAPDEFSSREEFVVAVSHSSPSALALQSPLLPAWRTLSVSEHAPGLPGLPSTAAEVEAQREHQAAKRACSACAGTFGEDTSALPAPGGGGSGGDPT
property.label: IC50 (nM)
Give bare numbers, in nM.

>>> df
                                 molecule  quantity_unit  test_result
0  COc1cccc(-c2cc(Cc3ccncc3)cc3cccnc23)c1             nM          1.5

# per-item lookup of IC50; items listed below
1. CC(c1cc(-c2cccc(/C=C(\c3ccc(S(C)(=O)=O)cc3)c3ncc(C(C)(C)O)s3)c2)c2ncccc2c1)S(C)(=O)=O (stereo not drawn)
2. CC(C)NC(=O)/C(=C/c1cccc(-c2cc(C(C)(C)S(C)(=O)=O)cc3cccnc23)c1)c1ccc(S(C)(=O)=O)cc1

Reply text:
[1.7, 0.9]
